Test system: rice
TEST METHOD NOTES: Low temperature assay on rice seedlings
Assay type: in vivo
CONDITIONS: 0.01 mg/l, 3 °C, 9 days
Description: According to a low temperature assay, we measured parameters including plant height, number of leaf, area of leaf, number of tiller, weight of root at low temperature to completely determine effects of the natural brassinolide analogues on the resistance to low temperature of a plant. The natural brassinolide analogues, BR1, BR2, BR3, BR4, BR5 and BR6, used herein, were those prepared by the method of Example 1. […]

# COMPOUND, Weight of root [g]
measured = [
    ("CC[C@@H](C(C)C)[C@@H](O)[C@H](O)[C@@H](C)[C@H]1CCC2C3COC(=O)C4C[C@H](O)[C@H](O)C[C@]4(C)C3CC[C@@]21C (stereo partly drawn)", 2.9),
    ("CC(C)[C@H](C)[C@@H](O)[C@H](O)[C@@H](C)[C@H]1CCC2C3CC(=O)C4C[C@H](O)CC[C@]4(C)C3CC[C@@]21C (stereo partly drawn)", 2.9),
    ("C=C(C(C)C)[C@@H](O)[C@H](O)[C@@H](C)[C@H]1CCC2C3COC(=O)C4C[C@H](O)[C@H](O)C[C@]4(C)C3CC[C@@]21C (stereo partly drawn)", 2.9),
    ("CC(C)C[C@@H](O)[C@H](O)[C@@H](C)[C@H]1CCC2C3CC(=O)C4C[C@H](O)[C@H](O)C[C@]4(C)C3CC[C@@]21C (stereo partly drawn)", 2.7),
    ("CC(C)(O)CC[C@@H](O)[C@](C)(O)[C@H]1CC[C@@]2(O)[C@@H]3CC(=O)[C@@H]4C[C@@H](O)[C@@H](O)C[C@]4(C)[C@H]3CC[C@]12C", 2.9),
    ("CC(C)[C@H](C)[C@@H](O)[C@H](O)[C@@H](C)[C@H]1CCC2C3COC(=O)C4C[C@H](O)[C@H](O)C[C@]4(C)C3CC[C@@]21C (stereo partly drawn)", 2.9),
]
